Assay: Cmax in Sprague-Dawley rat at 2 mg/kg, iv measured upto 24 hrs
Assay type: ADME, organism-based
Design: time < 24 hrs, dose 2 mg/kg, route iv
Conditions: in vivo
RECORDED METRIC: Cmax (ng/mL)

> print(dat)
                                   molecule  quantity.unit  reported.value
1  O=C(N/N=C/c1ccc([N+](=O)[O-])s1)c1ccc(OCCCCCCN2CCCCC2)cc1          ng/mL             471
2  O=C(N/N=C/c1ccc([N+](=O)[O-])o1)c1ccc(OCCCCCCN2CCCCC2)cc1          ng/mL             406

* * *

Experiment: Half life in Sprague-Dawley rat at 2 mg/kg, iv measured upto 24 hrs
Type: ADME, organism-based
Details: in vivo
RECORDED METRIC: half-life (h)

(A) O=C(N/N=C/c1ccc([N+](=O)[O-])o1)c1ccc(OCCCCCCN2CCCCC2)cc1
(B) O=C(N/N=C/c1ccc([N+](=O)[O-])s1)c1ccc(OCCCCCCN2CCCCC2)cc1
stdin: Given the listed items, does A or B have the lesser reported half-life? Answer format: the label of the selected item.
stdout: B

* * *

Tested on: NIH3T3
Assay: Antiproliferative activity against NIH3T3 cells at 10 uM after 72 hrs by MTT assay
Assay type: functional, Mus musculus
Quick reference: Activity of the listed items.
Report as a plain number; the unit % is understood.

Please review the entries below; each comes with its answer.
> print(dat)
                                   molecule  recorded.metric  reported.value
1  O=C(N/N=C/c1cccc([N+](=O)[O-])c1)c1ccc(O)cc1         Activity            16.1
2  CN1CCN(CCCCCOc2ccc(C(=O)N/N=C/c3ccc([N+](=O)[O-])o3)cc2)CC1         Activity           81.33
3  O=C(N/N=C/c1ccc([N+](=O)[O-])o1)c1ccc(OCCCN2CCOCC2)cc1         Activity           77.53
4  O=C(N/N=C/c1ccc([N+](=O)[O-])o1)c1ccc(OCCCCCCN2CCCCC2)cc1         Activity           79.29

stdin: // returns reported Activity for input O=C(N/N=C/c1ccc([N+](=O)[O-])s1)c1ccc(O)cc1
stdout: 78.25

* * *

System: NIH3T3
Test: Antiproliferative activity against NIH3T3 cells at 10 uM after 72 hrs by MTT assay
Assay type: functional, Mus musculus
Quick reference: Activity of the listed items.
Report as a plain number; the unit % is understood.

Please review the entries below; each comes with its answer.
> print(dat)
                                   molecule  experimental.system  recorded.metric  quantity.unit  reported.value
1  O=C(N/N=C/c1ccc([N+](=O)[O-])s1)c1ccc(OCCCCCCN2CCCCC2)cc1               NIH3T3         Activity              %           81.88
2  O=C(N/N=C/c1ccc([N+](=O)[O-])o1)c1ccccc1               NIH3T3         Activity              %           66.75
3  O=C(N/N=C/c1ccc([N+](=O)[O-])o1)c1ccc(OCCCCCCCCN2CCCCC2)cc1               NIH3T3         Activity              %           83.28
4  O=C(N/N=C/c1ccc([N+](=O)[O-])o1)c1ccc(OCCN2CCOCC2)cc1               NIH3T3         Activity              %           62.53
5  O=C(N/N=C/c1ccc([N+](=O)[O-])o1)c1ccc(OCCCN2CCCCC2)cc1               NIH3T3         Activity              %           85.25

stdin: // returns reported Activity for input O=C(N/N=C/c1ccc([N+](=O)[O-])o1)c1ccc(OCCCCN2CCNCC2)cc1
stdout: 43.51

stdin: // returns reported Activity for input O=C(N/N=C/c1ccc([N+](=O)[O-])o1)c1ccc(OCCCCN2CCOCC2)cc1
stdout: 82.31

stdin: // returns reported Activity for input O=C(N/N=C/c1ccc([N+](=O)[O-])o1)c1ccc(O)c(O)c1
stdout: 14.48

stdin: // returns reported Activity for input CN1CCN(CCCOc2ccc(C(=O)N/N=C/c3ccc([N+](=O)[O-])o3)cc2)CC1
stdout: 85.61

stdin: // returns reported Activity for input CN(C)CCCOc1ccc(C(=O)N/N=C/c2ccc([N+](=O)[O-])o2)cc1
stdout: 75.12
